Assay: Clearance in rat at 10 mg/kg
Type: ADME, organism-based
Set-up: dose 10 mg/kg
Details: in vivo
value_kind: clearance (mL/min/kg)

{"smiles_code": "CCCCC[C@H](O)/C=C/[C@H]1CCC(=O)N1CCc1ccc(C(=O)O)cc1", "value_kind": "clearance", "unit_string": "mL/min/kg", "measured_number": 9.17}

###

Assay: Half life in rat at 10 mg/kg, iv
Type: ADME, organism-based
Parameters: dose 10 mg/kg, route intravenous
Conditions: in vivo

{"smiles_code": "CCCCC[C@H](O)/C=C/[C@H]1CCC(=O)N1CCc1ccc(C(=O)O)cc1", "half-life, h": 14.3}
